Target Under Test: human AhR (Homo sapiens)
Construct: INDIGO's Aryl Hydrocarbon Receptor (AhR) Reporter Cells include the luciferase reporter gene functionally linked to an AhR-responsive promoter
Sequence (P35869 11-848): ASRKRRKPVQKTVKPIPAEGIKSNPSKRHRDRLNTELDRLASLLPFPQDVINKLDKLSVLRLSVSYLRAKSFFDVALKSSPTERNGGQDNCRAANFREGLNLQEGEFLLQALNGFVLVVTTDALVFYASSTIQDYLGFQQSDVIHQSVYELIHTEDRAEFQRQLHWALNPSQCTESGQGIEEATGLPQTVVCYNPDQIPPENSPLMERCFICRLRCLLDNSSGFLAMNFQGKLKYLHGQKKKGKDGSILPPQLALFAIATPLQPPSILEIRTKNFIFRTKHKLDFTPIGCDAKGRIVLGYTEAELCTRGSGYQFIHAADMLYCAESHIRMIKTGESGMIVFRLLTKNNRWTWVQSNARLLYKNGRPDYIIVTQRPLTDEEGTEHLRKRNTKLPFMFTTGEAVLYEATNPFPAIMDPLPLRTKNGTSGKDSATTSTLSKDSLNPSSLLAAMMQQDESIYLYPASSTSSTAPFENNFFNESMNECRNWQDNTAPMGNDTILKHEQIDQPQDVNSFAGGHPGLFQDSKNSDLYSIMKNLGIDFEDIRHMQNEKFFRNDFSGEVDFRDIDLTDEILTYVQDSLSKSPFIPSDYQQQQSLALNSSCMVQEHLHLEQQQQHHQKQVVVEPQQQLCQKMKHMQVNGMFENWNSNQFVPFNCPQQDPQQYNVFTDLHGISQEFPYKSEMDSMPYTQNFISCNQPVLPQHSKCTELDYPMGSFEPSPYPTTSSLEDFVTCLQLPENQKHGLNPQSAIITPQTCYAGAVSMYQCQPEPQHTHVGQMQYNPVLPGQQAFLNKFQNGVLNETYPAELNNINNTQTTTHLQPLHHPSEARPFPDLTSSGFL
Assay Text: INDIGO AhR Reporter Assay (luciferase reporter cells, antagonist mode)
Test Settings: antagonist mode with 50 nM of VAF347 (AhR agonist); 22-24 hours incubation; luciferase RLU
Below, each of the compounds is paired with its reported IC50 value.

Compound	Target Under Test	Val
Cc1ccccc1/N=N/c1ccc(NC(=O)c2ccnn2C)c(C)c1 [CH223191, reference compound]	human AhR (Homo sapiens)	100 to 500 nM
Cn1nc(C(F)(F)F)cc1NC(=O)c1ccc2cc(-c3cccs3)cnc2c1	human AhR (Homo sapiens)	< 100 nM
O=C(Nc1ccc(C(F)(F)F)nc1)c1ccc2cc(-c3nccs3)cnc2c1	human AhR (Homo sapiens)	500 to 1000 nM
CCN(CC)S(=O)(=O)c1cc(NC(=O)c2cc3cc(-c4ccccn4)cnc3s2)ccc1Cl	human AhR (Homo sapiens)	500 to 1000 nM
Cn1nc(C(F)(F)F)cc1NC(=O)c1ccc2cc(-c3ccc(F)cn3)cnc2c1	human AhR (Homo sapiens)	< 100 nM

Input: Which value of IC50 has been reported for `Cc1ccccc1-c1cc(NC(=O)c2cc3ncccc3cc2Cl)n(C)n1` in the records?
Output: < 100 nM

Input: Which value of IC50 has been reported for `Cn1nc(C(C)(C)C)cc1NC(=O)c1ccc2cc(-c3ccc(F)cc3)cnc2c1` in the records?
Output: 100 to 500 nM

Input: Which value of IC50 has been reported for `Cn1nc(C(F)(F)F)cc1NC(=O)c1ccc2cc(-c3ncc(F)cn3)cnc2c1` in the records?
Output: < 100 nM

Input: Which value of IC50 has been reported for `Cn1nc(-c2ccccc2F)cc1NC(=O)c1cc2ncccc2cc1Cl` in the records?
Output: 100 to 500 nM

Input: Which value of IC50 has been reported for `Cn1nc(C(F)(F)F)cc1NC(=O)c1ccc2cc(-c3ccccc3C(F)(F)F)cnc2c1` in the records?
Output: 500 to 1000 nM

Input: Which value of IC50 has been reported for `Cn1nc(C(F)(F)F)cc1NC(=O)c1ccc2cc(-c3cccc(C(F)(F)F)c3)cnc2c1` in the records?
Output: > 1000 nM

Input: Which value of IC50 has been reported for `Cn1nc(C(F)(F)F)cc1NC(=O)c1ccc2cc(-c3cccc(F)c3)cnc2c1` in the records?
Output: > 1000 nM

====

Below, each of the molecules is paired with its reported IC50 value.
Target Under Test: human AhR (Homo sapiens, UniProt P35869)
Construct: INDIGO's Aryl Hydrocarbon Receptor (AhR) Reporter Cells include the luciferase reporter gene functionally linked to an AhR-responsive promoter
Assay Text: INDIGO AhR Reporter Assay (luciferase reporter cells, antagonist mode)
Test Settings: antagonist mode with 50 nM of VAF347 (AhR agonist); 22-24 hours incubation; luciferase RLU

Take a look at these entries with their results.
Molecule	IC50
Cn1nc(C(F)(F)F)cc1NC(=O)c1ccc2cc(-c3ncc(F)cc3F)cnc2c1 [Compound 124]	< 100 nM
CCN(CC)S(=O)(=O)c1cc(NC(=O)c2cc3cc(-c4ccncc4)cnc3s2)ccc1Cl [Compound 142]	100 to 500 nM
Cn1nc(C(F)(F)F)cc1NC(=O)c1ccc2cc(-c3cccnc3)cnc2c1 [Compound 77]	> 1000 nM

Input: Which value of IC50 has been reported for Cc1ccccc1-c1cnc2cc(C(=O)Nc3cc(C(F)(F)F)nn3C)ccc2c1 [Compound 52] in the records?
Output: 100 to 500 nM

Input: Which value of IC50 has been reported for Cc1ccc(-c2cnc3cc(C(=O)Nc4cc(C(F)(F)F)nn4C)ccc3c2)cc1 [Compound 62] in the records?
Output: 100 to 500 nM

Input: Which value of IC50 has been reported for Cc1ccccc1-c1cc(NC(=O)c2ccc3cc(-c4cccs4)cnc3c2)n(C)n1 [Compound 97] in the records?
Output: < 100 nM

Input: Which value of IC50 has been reported for Cn1nc(-c2ccccc2)cc1NC(=O)c1ccc2cc(-c3ccncc3F)cnc2c1 [Compound 125] in the records?
Output: 100 to 500 nM

Input: Which value of IC50 has been reported for Cn1nc(C(C)(C)C)cc1NC(=O)c1cc2ncccc2cc1Cl [Compound 19] in the records?
Output: 100 to 500 nM

====

Below, each of the molecules is paired with its reported IC50 value.
Target Under Test: human AhR (Homo sapiens)
Construct: INDIGO's Aryl Hydrocarbon Receptor (AhR) Reporter Cells include the luciferase reporter gene functionally linked to an AhR-responsive promoter
Assay Text: INDIGO AhR Reporter Assay (luciferase reporter cells, antagonist mode)
Test Settings: antagonist mode with 50 nM of VAF347 (AhR agonist); 22-24 hours incubation; luciferase RLU

Input: Which value of IC50 has been reported for Cn1nc(C(F)(F)F)cc1NC(=O)c1ccc2cc(-c3ccccc3F)cnc2c1 [Compound 54] in the records?
Output: < 100 nM

====

Below, each of the compounds is paired with its reported IC50 value.
Target Under Test: human AhR (Homo sapiens)
Construct: INDIGO's Aryl Hydrocarbon Receptor (AhR) Reporter Cells include the luciferase reporter gene functionally linked to an AhR-responsive promoter
Assay Text: INDIGO AhR Reporter Assay (luciferase reporter cells, antagonist mode)
Test Settings: antagonist mode with 50 nM of VAF347 (AhR agonist); 22-24 hours incubation; luciferase RLU

Smiles String	IC50
Cn1nc(C(F)(F)F)cc1NC(=O)c1ccc2cc(-c3ccc(F)cc3F)cnc2c1	< 100 nM
Cn1nc(C(F)(F)F)cc1NC(=O)c1ccc2cc(-c3ccccc3Cl)cnc2c1	100 to 500 nM
CN1CCN(S(=O)(=O)c2cc(NC(=O)c3ccc4c(c3)NC(=O)CO4)ccc2Cl)CC1	500 to 1000 nM
CN(C)S(=O)(=O)c1cc(NC(=O)c2cc3cc(-c4ccncc4F)cnc3s2)ccc1Cl	500 to 1000 nM

Please find the next compound below.
Input: Item: `Cc1ccc(F)cc1-c1cc(NC(=O)c2cc3ncccc3cc2Cl)n(C)n1` Test system: human AhR (Homo sapiens) Read-out: IC50 Value: ?
Output: < 100 nM

====

Target Under Test: human AhR (Homo sapiens, UniProt P35869)
Construct: INDIGO's Aryl Hydrocarbon Receptor (AhR) Reporter Cells include the luciferase reporter gene functionally linked to an AhR-responsive promoter
Sequence (P35869 11-848): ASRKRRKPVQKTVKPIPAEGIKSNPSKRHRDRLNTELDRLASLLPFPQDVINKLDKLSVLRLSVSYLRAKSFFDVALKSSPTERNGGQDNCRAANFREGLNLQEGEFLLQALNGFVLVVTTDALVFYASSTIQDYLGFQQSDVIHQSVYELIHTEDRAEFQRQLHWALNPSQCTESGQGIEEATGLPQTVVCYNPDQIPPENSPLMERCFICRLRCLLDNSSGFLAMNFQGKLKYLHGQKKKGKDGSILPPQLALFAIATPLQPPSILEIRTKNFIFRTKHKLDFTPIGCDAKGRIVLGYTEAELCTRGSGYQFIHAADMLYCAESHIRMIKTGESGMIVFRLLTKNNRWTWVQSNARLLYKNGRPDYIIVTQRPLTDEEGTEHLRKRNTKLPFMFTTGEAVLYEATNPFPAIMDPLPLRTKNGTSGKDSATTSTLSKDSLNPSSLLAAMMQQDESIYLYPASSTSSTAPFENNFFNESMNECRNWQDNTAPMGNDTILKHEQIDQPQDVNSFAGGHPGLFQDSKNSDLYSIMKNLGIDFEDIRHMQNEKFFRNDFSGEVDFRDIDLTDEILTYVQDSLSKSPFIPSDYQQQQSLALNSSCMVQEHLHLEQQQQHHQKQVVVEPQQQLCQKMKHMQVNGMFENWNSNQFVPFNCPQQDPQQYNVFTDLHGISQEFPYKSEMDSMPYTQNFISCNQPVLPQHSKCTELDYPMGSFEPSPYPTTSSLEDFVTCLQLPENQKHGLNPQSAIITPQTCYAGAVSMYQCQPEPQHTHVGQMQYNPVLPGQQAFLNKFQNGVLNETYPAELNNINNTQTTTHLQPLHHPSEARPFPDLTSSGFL
Assay Text: INDIGO AhR Reporter Assay (luciferase reporter cells, antagonist mode)
Test Settings: antagonist mode with 50 nM of VAF347 (AhR agonist); 22-24 hours incubation; luciferase RLU
pIC50: −log10 of the molar value.
Reported Endpoint: pIC50

Take a look at these entries with their results.
Molecule	Target Under Test	pIC50
Cn1nc(-c2ccccc2)cc1NC(=O)c1ccc2cc(-c3ccc(F)cn3)cnc2c1 [Compound 128]	human AhR (Homo sapiens, UniProt P35869)	> 7.00
Cn1cc(-c2ccccc2)nc1NC(=O)c1cc2ncccc2cc1Cl [Compound 90]	human AhR (Homo sapiens, UniProt P35869)	6.00 to 6.30
Cn1nc(C(F)(F)F)cc1NC(=O)c1ccc2cc(-c3nccs3)cnc2c1 [Compound 93]	human AhR (Homo sapiens, UniProt P35869)	> 7.00
CCN(CC)S(=O)(=O)c1cc(NC(=O)c2cc3cc(-c4ccncc4F)cnc3s2)ccc1Cl [Compound 145]	human AhR (Homo sapiens, UniProt P35869)	6.30 to 7.00
Cc1ccc(Cl)cc1-c1cc(NC(=O)c2cc3ncccc3cc2Cl)n(C)n1 [Compound 51]	human AhR (Homo sapiens, UniProt P35869)	> 7.00
CC(C)Oc1ccnc2cc(C(=O)Nc3cc(C(F)(F)F)nn3C)ccc12 [Compound 99]	human AhR (Homo sapiens, UniProt P35869)	< 6.00
Cn1nc(C(F)(F)F)cc1NC(=O)c1ccc2cc(-c3ccccc3)cnc2c1 [Compound 40]	human AhR (Homo sapiens, UniProt P35869)	> 7.00

Input: Which value of pIC50 has been reported for Cn1nc(C(F)(F)F)cc1NC(=O)c1ccc2cc(-c3cccc(Cl)c3)cnc2c1 [Compound 65] in the records?
Output: < 6.00
